Collected melting point values appear next to each entry.
property: melting point

>>> result_value("COCC1CC2C3CCc4cc(O)ccc4C3CCC2(C)C1NN (stereo not shown)")
"199 to 201 °C"
>>> result_value("CCOC(C)C1CC2C3CCc4cc(O)ccc4C3CCC2(C)C1NNC (stereo not shown)")
"280 to 282 °C"
>>> result_value("CCOC(C)C1CC2C3CCc4cc(O)ccc4C3CCC2(C)C1NN (stereo not shown)")
"223 to 225 °C"
>>> result_value("COCC1CC2C3CCc4cc(O)ccc4C3CCC2(C)C1NNc1ccccc1 (stereo not shown)")
"312 to 314 °C"
>>> result_value("CN1CC2CC3C4CCc5cc(O)ccc5C4CCC3(C)C2=N1 (stereo not shown)")
"117 to 119 °C"
>>> result_value("CCOCC1CC2C3CCc4cc(O)ccc4C3CCC2(C)C1NNC (stereo not shown)")
"286 to 288 °C"
>>> result_value("CCOCC1CC2C3CCc4cc(O)ccc4C3CCC2(C)C1NNc1ccccc1 (stereo not shown)")
"338 to 340 °C"
>>> result_value("CNNC1C(C(C)OC)CC2C3CCc4cc(O)ccc4C3CCC21C (stereo not shown)")
"310 to 312 °C"
>>> result_value("CCOCC1CC2C3CCc4cc(O)ccc4C3CCC2(C)C1NN (stereo not shown)")
"219 to 221 °C"
>>> result_value("CC12CCC3c4ccc(O)cc4CCC3C1CC1CN(c3ccccc3)N=C12 (stereo not shown)")
"255 to 257 °C"
>>> result_value("CC1C2CC3C4CCc5cc(O)ccc5C4CCC3(C)C2=NN1c1ccccc1 (stereo not shown)")
"214 to 216 °C"
>>> result_value("COC(C)C1CC2C3CCc4cc(O)ccc4C3CCC2(C)C1NN (stereo not shown)")
"308 to 310 °C"
>>> result_value("CNNC1C(COC)CC2C3CCc4cc(O)ccc4C3CCC21C (stereo not shown)")
"222 to 224 °C"
>>> result_value("CC1C2CC3C4CCc5cc(O)ccc5C4CCC3(C)C2=NN1C (stereo not shown)")
"216 to 218 °C"
>>> result_value("COC(C)C1CC2C3CCc4cc(O)ccc4C3CCC2(C)C1NNc1ccccc1 (stereo not shown)")
"229 to 231 °C"
>>> result_value("CCOC(C)C1CC2C3CCc4cc(O)ccc4C3CCC2(C)C1NNc1ccccc1 (stereo not shown)")
"288 to 300 °C"

----------
experimental-details: in vitro
Assay type: cell-based
Could you please classify the records by IC50 at 24 h using these ranges: label 0 = under 8 µM, label 1 = from 8 µM up to 20 µM, label 2 = 20 µM and over

>>> discrete_label("CNNC1C(C(C)OC)CC2C3CCc4cc(O)ccc4C3CCC21C (stereo not drawn) [Compound 3f]")
"label 1"
>>> discrete_label("COC(C)C1CC2C3CCc4cc(O)ccc4C3CCC2(C)C1NNc1ccccc1 (stereo not drawn) [Compound 3j]")
"label 1"
>>> discrete_label("CCOC(C)C1CC2C3CCc4cc(O)ccc4C3CCC2(C)C1NN (stereo not drawn) [Compound 3d]")
"label 0"
>>> discrete_label("COCC1CC2C3CCc4cc(O)ccc4C3CCC2(C)C1NNc1ccccc1 (stereo not drawn) [Compound 3i]")
"label 1"
>>> discrete_label("COCC1CC2C3CCc4cc(O)ccc4C3CCC2(C)C1NN (stereo not drawn) [Compound 3a]")
"label 0"
>>> discrete_label("CCOCC1CC2C3CCc4cc(O)ccc4C3CCC2(C)C1NNC (stereo not drawn) [Compound 3g]")
"label 1"
>>> discrete_label("CN1CC2CC3C4CCc5cc(O)ccc5C4CCC3(C)C2=N1 (stereo not drawn) [Compound 4a]")
"label 2"
>>> discrete_label("CC1C2CC3C4CCc5cc(O)ccc5C4CCC3(C)C2=NN1C (stereo not drawn) [Compound 4b]")
"label 2"

----------
system-name: V600EBRAF (mutant BRAF kinase) (Homo sapiens, UniProt P15056, V600E)
Construct: BRAF wild-type and V600E mutant kinase domains were expressed and purified
Sequence (P15056 457-717 V600E limits assumed): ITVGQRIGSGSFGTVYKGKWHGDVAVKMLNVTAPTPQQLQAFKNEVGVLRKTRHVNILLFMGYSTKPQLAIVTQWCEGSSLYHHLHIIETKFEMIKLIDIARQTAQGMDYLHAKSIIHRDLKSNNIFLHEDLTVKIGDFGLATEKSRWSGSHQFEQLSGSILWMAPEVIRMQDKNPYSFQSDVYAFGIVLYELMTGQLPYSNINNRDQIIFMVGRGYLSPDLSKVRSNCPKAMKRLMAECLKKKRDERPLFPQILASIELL
experimental-details: In vitro ELISA-based kinase assay, V600EBRAF
recorded-conditions: GST-MEK-His substrate
property: IC50 (nM)

>>> result_value("COCC1CC2C3CCc4cc(O)ccc4C3CCC2(C)C1NN (stereo not shown)")
41

----------
system-name: topoisomerase II
experimental-details: Topoisomerase II relaxation assay
Type: biochemical
recorded-conditions: topoisomerase II purified from P388 cells, relaxation of pBR-322 DNA; read-out: IC50, topoisomerase II inhibition
property: IC50 (nM)

>>> result_value("CC1C2CC3C4CCc5cc(O)ccc5C4CCC3(C)C2=NN1c1ccccc1 (centres unmarked)")
43.6
>>> result_value("COCC1CC2C3CCc4cc(O)ccc4C3CCC2(C)C1NN (centres unmarked)")
3.45

----------
IC50 at 24 h listing for selected compounds.
experimental-details: in vitro
Assay type: cell-based
property: IC50 at 24 h (µM)

>>> result_value("CC1C2CC3C4CCc5cc(O)ccc5C4CCC3(C)C2=NN1c1ccccc1 (stereo not shown)")
30.3
>>> result_value("CCOC(C)C1CC2C3CCc4cc(O)ccc4C3CCC2(C)C1NNC (stereo not shown)")
16.2
>>> result_value("CCOCC1CC2C3CCc4cc(O)ccc4C3CCC2(C)C1NN (stereo not shown)")
5.67
>>> result_value("CC12CCC3c4ccc(O)cc4CCC3C1CC1CN(c3ccccc3)N=C12 (stereo not shown)")
25.6
>>> result_value("CCOC(C)C1CC2C3CCc4cc(O)ccc4C3CCC2(C)C1NNc1ccccc1 (stereo not shown)")
20.2
>>> result_value("COC(C)C1CC2C3CCc4cc(O)ccc4C3CCC2(C)C1NN (stereo not shown)")
2.45
>>> result_value("CCOCC1CC2C3CCc4cc(O)ccc4C3CCC2(C)C1NNc1ccccc1 (stereo not shown)")
17.8
